experiment: Cytotoxicity against human AC16 [Human hybrid] cells assessed as cell viability at 10 uM incubated for 72 hrs by celltiter-glo assay relative to control; format: toxicity, cell-based; settings: read-out: Activity
METRIC NAME: viability at 72 h, 10 µM

Q. Which viability at 72 h, 10 µM reading was recorded for the molecule COc1cccc2c1C(=O)c1c(O)c3c(c(O)c1C2=O)C[C@@](O)(C(=O)CO)C[C@@H]3O[C@H]1C[C@H](NC(C)=O)[C@H](O)[C@H](C)O1 ?
A. > 90%
